Reference source for all entries: PubChem BioAssay (Tox21)

Study System: Nuclear receptor ROR-gamma (Homo sapiens) (UniProt P51449)
Test Details: qHTS assay to identify small molecule antagonists of the retinoid-related orphan receptor gamma (ROR-gamma) signaling pathway (AID 1159521;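 further: CHO cells with doxycycline inducible ROR-gamma driving an RORE luciferase reporter; top concentration of the series differs between compounds; on the % scale 0 is the no-effect control and ±100 the full control effect; nearly all actives have a fitted effect of over 50% in size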)
Experimental Conditions: Tet-on RORgamma CHO cells, RORE-luciferase, 16 h; series mostly up to 92.4 µM
Records with an inconclusive call do not appear. Active and inactive are the calls of the source. The call rests on the fitted dose curve; in most records, active means well fitted inhibition curve with a large enough effect in the repeat runs; inconclusive means weak or mixed curves, or effect the other way; inactive means no such curve, though single readings can be large or run the other way.

Molecule: Cc1ccc(C)c(C)c1
Study System: Nuclear receptor ROR-gamma (Homo sapiens) (UniProt P51449)
outcome: inactive
//
Molecule: ClC1=C(Cl)C(Cl)(Cl)C(Cl)=C1Cl
Study System: Nuclear receptor ROR-gamma (Homo sapiens) (UniProt P51449)
outcome: inactive
//
Molecule: NCc1cccc(CN)c1
Study System: Nuclear receptor ROR-gamma (Homo sapiens) (UniProt P51449)
outcome: inactive
//
Molecule: C=C(C)C(=O)OCCCCCCCCCCCC
Study System: Nuclear receptor ROR-gamma (Homo sapiens) (UniProt P51449)
outcome: inactive
//
Molecule: CN(CCOc1ccc(CC2SC(=O)NC2=O)cc1)c1ccccn1 (stereo unspecified)
Study System: Nuclear receptor ROR-gamma (Homo sapiens) (UniProt P51449)
outcome: inactive
//
Molecule: OCC1CCCO1 (stereo unspecified)
Study System: Nuclear receptor ROR-gamma (Homo sapiens) (UniProt P51449)
outcome: inactive
//
Molecule: CC(C)Cc1ccccc1
Study System: Nuclear receptor ROR-gamma (Homo sapiens) (UniProt P51449)
outcome: inactive
//
Molecule: CC(C)(C)C1CCC(O)CC1 (stereo unspecified)
Study System: Nuclear receptor ROR-gamma (Homo sapiens) (UniProt P51449)
outcome: inactive
//
Molecule: CCCCC(CC)COC(C)=O (stereo unspecified)
Study System: Nuclear receptor ROR-gamma (Homo sapiens) (UniProt P51449)
outcome: inactive
//
Molecule: Cc1ccc(C(=O)O)o1
Study System: Nuclear receptor ROR-gamma (Homo sapiens) (UniProt P51449)
outcome: inactive
//
Molecule: CCCCC(CC)COC(=O)/C=C\C(=O)OCC(CC)CCCC (stereo unspecified)
Study System: Nuclear receptor ROR-gamma (Homo sapiens) (UniProt P51449)
outcome: inactive
//
Molecule: CC(C)(N=C=O)c1cccc(C(C)(C)N=C=O)c1
Study System: Nuclear receptor ROR-gamma (Homo sapiens) (UniProt P51449)
outcome: inactive
//
Molecule: O=C(Cl)c1c(Cl)c(Cl)c(C(=O)Cl)c(Cl)c1Cl
Study System: Nuclear receptor ROR-gamma (Homo sapiens) (UniProt P51449)
outcome: inactive
//
Molecule: COCC(=O)O
Study System: Nuclear receptor ROR-gamma (Homo sapiens) (UniProt P51449)
outcome: inactive
//
Molecule: NC(=O)NNc1ccccc1
Study System: Nuclear receptor ROR-gamma (Homo sapiens) (UniProt P51449)
outcome: inactive
//
Molecule: Nc1nc2ncc(CNc3ccc(C(=O)N[C@@H](CCC(=O)O)C(=O)O)cc3)nc2c(=O)[nH]1
Study System: Nuclear receptor ROR-gamma (Homo sapiens) (UniProt P51449)
outcome: inactive

----------
Test Details: qHTS assay to identify small molecule agonists of the endoplasmic reticulum stress response signaling pathway (AID 1159516); further: on the % scale 0 is the no-effect control and ±100 the full control effect
Experimental Conditions: ESRE-bla HeLa, ER stress beta-lactamase reporter, 5 h; series mostly up to 61 µM
Records with an inconclusive call do not appear. Calls of active or inactive are those of the source. Calls follow the shape of the dose curve; as a rule, active = well fitted activation curve with a large enough effect in the signal ratio in the repeat runs (not every such curve was filed as active); inconclusive = weak or mixed curves, or effect the other way; inactive = flat fitted curve, though single readings scatter; the % refers to the signal ratio.

Molecule: O=[N+]([O-])C(CO)(CO)CO
outcome: inactive
--
Molecule: CC1CC(OC(=O)c2ccccc2O)CC(C)(C)C1 (centres undefined)
outcome: inactive
--
Molecule: CCCCCCCCCCCCOCC1CO1 (centres undefined)
outcome: inactive
--
Molecule: O=S(=O)(O)c1cc(S(=O)(=O)O)c2c(N=Nc3ccccc3)c(O)ccc2c1
outcome: inactive
--
Molecule: CC(=O)CCc1ccccc1
outcome: inactive
--
Molecule: C=C(C#N)C(=O)OCC
outcome: inactive
--
Molecule: CCCCCCCCCCC=CC1CC(=O)OC1=O (centres undefined)
outcome: inactive
--
Molecule: CCCCC(CC)COC(=O)/C=C\C(=O)OCC(CC)CCCC (centres undefined)
outcome: inactive
--
Molecule: CCCCC(CC)COC(=O)CCCCCCCC(=O)OCC(CC)CCCC (centres undefined)
outcome: inactive
--
Molecule: Oc1ccc2ccccc2c1
outcome: inactive
--
Molecule: C=C(C)C(=O)OCCCCCCCCCCCC
outcome: inactive
--
Molecule: COC(=O)c1ccc(C(=O)OC)cc1
outcome: inactive
--
Molecule: C=C1C2CCC(C2)C1(C)C (centres undefined)
outcome: inactive
--
Molecule: Cc1ccc(N)c(S(=O)(=O)O)c1
outcome: inactive

----------
Test Details: qHTS assay to identify small molecule agonists of the androgen receptor (AR) signaling pathway in the presence of an antagonist - cell viability counter screen (AID 1259379); further: nearly all actives have a fitted effect of over 25% in size
Experimental Conditions: MDA-kb2 viability, CellTiter-Fluor, 16 h; series mostly up to 92.4 µM
Results filed as inconclusive are left out. Activity calls are given as the source filed them. The call rests on the fitted dose curve; in most records, active means well fitted cell-killing curve with a large enough effect in the repeat runs; inconclusive means weak or mixed curves, or effect the other way; inactive means flat fitted curve, though single readings scatter.
Classes used: class 1 for active, class 0 for inactive

Compound: O=[N+]([O-])C(CO)(CO)CO
Class: class 0
--
Compound: CCCCCCCCCCC=CC1CC(=O)OC1=O (centres undefined)
Class: class 0
--
Compound: CCCCCCCCCCCCOCC1CO1 (centres undefined)
Class: class 0
--
Compound: Cc1cc(O)cc(C)c1Cl
Class: class 0
--
Compound: C=C(C)C(=O)OCCCCCCCCCCCC
Class: class 0
--
Compound: CCCCCCCCCC(=O)O
Class: class 0
--
Compound: CCOC(=O)/C=C\C(=O)OCC
Class: class 0
--
Compound: OC1CCCC1
Class: class 0
--
Compound: O=c1c(-c2ccc(O)cc2)coc2cc(O)ccc12
Class: class 0
--
Compound: CC1=CC[C@H]2C[C@@H]1C2(C)C
Class: class 0
--
Compound: CC(=O)CCc1ccccc1
Class: class 0
--
Compound: OCC1CCCO1 (centres undefined)
Class: class 0
--
Compound: CCC(C)C=O (centres undefined)
Class: class 0
--
Compound: C=C(C)C(=O)OCCCCCC
Class: class 0
--
Compound: Cc1cc(NS(=O)(=O)c2ccc(N)cc2)no1
Class: class 0
--
Compound: NC(=O)NNc1ccccc1
Class: class 0
--
Compound: CCCCCCCCC
Class: class 0
--
Compound: CCCCC(CC)C(=O)OCCOCCOCCOC(=O)C(CC)CCCC (centres undefined)
Class: class 0
--
Compound: O=C1O[C@H](CO)[C@@H](O)[C@H](O)[C@H]1O
Class: class 0
--
Compound: Cc1ccc(C(=O)O)o1
Class: class 0
--
Compound: CS(=O)(=O)Nc1ccc([N+](=O)[O-])cc1Oc1ccccc1
Class: class 1
--
Compound: Oc1c(Cl)cc(Cl)c(Cl)c1Cl
Class: class 0
--
Compound: CC1(C)O[C@@H]2C[C@H]3[C@@H]4C[C@H](F)C5=CC(=O)CC[C@]5(C)[C@H]4[C@@H](O)C[C@]3(C)[C@]2(C(=O)CO)O1
Class: class 0
--
Compound: O=S(=O)(Oc1ccc(Cl)cc1Cl)c1ccccc1
Class: class 0
--
Compound: CS(=O)(=O)c1ccc([C@@H](O)[C@@H](CO)NC(=O)C(Cl)Cl)cc1
Class: class 0
--
Compound: C=C(C)C(=O)OCCC[Si](OC)(OC)OC
Class: class 0
--
Compound: OCC#CCO
Class: class 0
--
Compound: NC(=O)/N=N/C(N)=O
Class: class 0
--
Compound: Nc1c(S(=O)(=O)O)cc(Br)c2c1C(=O)c1ccccc1C2=O
Class: class 1

----------
Test Details: qHTS RealTime-Glo MT Cell Viability Assay in HEK293 cells - 32 hour (AID 1224868); further: nearly all actives have a fitted effect of over 50% in size
Experimental Conditions: RealTime-Glo luminescence; series mostly up to 76.8 µM
Results filed as inconclusive are left out. Active and inactive are the calls of the source. Calls come from the whole dose curve; as a rule, active = well fitted cell-killing curve with a large enough effect in the repeat runs; inconclusive = weak or mixed curves, or effect the other way; inactive = flat fitted curve, though single readings scatter.
Classes used: active, inactive

Molecule: CCCCC(CC)COC(C)=O (centres undefined)
Class: inactive
--
Molecule: CCCCCCCCCC(=O)O
Class: inactive
--
Molecule: C/C=C(C)/C=C/C=C(C)C
Class: inactive
--
Molecule: Cc1ccc(N)c(S(=O)(=O)O)c1
Class: inactive
--
Molecule: Clc1ccc(Cl)c(Cl)c1Cl
Class: inactive
--
Molecule: Cc1ccc(C(=O)O)o1
Class: inactive
--
Molecule: CCCCCCOC(C)=O
Class: inactive
--
Molecule: S=c1nc[nH]c2nc[nH]c12
Class: active
--
Molecule: C=C(C#N)C(=O)OCC
Class: inactive

----------
Study System: Peroxisome proliferator-activated receptor delta (Homo sapiens) (UniProt Q03181)
Sequence (Q03181 whole entry, looked up): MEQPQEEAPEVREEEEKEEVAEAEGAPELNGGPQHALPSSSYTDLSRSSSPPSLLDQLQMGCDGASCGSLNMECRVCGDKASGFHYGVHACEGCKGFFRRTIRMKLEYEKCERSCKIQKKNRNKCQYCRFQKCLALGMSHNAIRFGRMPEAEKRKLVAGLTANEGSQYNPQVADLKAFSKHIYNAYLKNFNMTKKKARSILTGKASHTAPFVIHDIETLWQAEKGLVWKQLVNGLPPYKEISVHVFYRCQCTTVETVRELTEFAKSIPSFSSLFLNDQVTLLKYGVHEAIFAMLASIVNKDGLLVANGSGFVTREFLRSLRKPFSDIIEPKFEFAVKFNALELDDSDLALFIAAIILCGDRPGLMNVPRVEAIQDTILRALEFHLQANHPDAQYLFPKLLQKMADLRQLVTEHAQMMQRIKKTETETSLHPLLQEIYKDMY
Test Details: qHTS assay to identify small molecule agonists of the peroxisome proliferator-activated receptor delta (PPARd) signaling pathway (AID 743212);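 further: HEK293H cells with PPARd UAS beta-lactamase reporter GeneBLAzer system; on the % scale 0 is the no-effect control and ±100 the full control effect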
Experimental Conditions: HEK293H PPARd-UAS-bla, beta-lactamase FRET ratio, 17 h; series mostly up to 62.6 µM
Inconclusive results are not listed. Calls of active or inactive are those of the source. Calls come from the whole dose curve.

Molecule Smiles: CC(=O)[C@@]1(O)CC[C@H]2[C@@H]3CCC4=CC(=O)CC[C@]4(C)[C@H]3CC[C@@]21C
outcome: inactive
//
Molecule Smiles: COC(=O)Nc1nc2ccc(Sc3ccccc3)cc2[nH]1
outcome: inactive
//
Molecule Smiles: CCCCNC(N)=O
outcome: inactive
//
Molecule Smiles: CC(C)(N=C=O)c1cccc(C(C)(C)N=C=O)c1
outcome: inactive
//
Molecule Smiles: S=c1nc[nH]c2nc[nH]c12
outcome: inactive
//
Molecule Smiles: NCCNCCNCCNCCN
outcome: inactive
//
Molecule Smiles: Cc1ccc(C(=O)O)o1
outcome: inactive
//
Molecule Smiles: CC(C)(C)C(=O)C1C(=O)c2ccccc2C1=O
outcome: inactive
//
Molecule Smiles: O=C(c1cc(O)c(O)c(O)c1)c1ccc(O)c(O)c1O
outcome: inactive
//
Molecule Smiles: C=C(C)C(=O)OCC(CC)(COC(=O)C(=C)C)COC(=O)C(=C)C
outcome: inactive
//
Molecule Smiles: CCCCCCOC(C)=O
outcome: inactive
//
Molecule Smiles: NS(=O)(=O)c1cc2c(cc1Cl)NC=NS2(=O)=O
outcome: inactive
//
Molecule Smiles: O=C(Oc1ccccc1)c1ccc(O)cc1
outcome: inactive
//
Molecule Smiles: CCc1ccccc1O
outcome: inactive
//
Molecule Smiles: O=[N+]([O-])c1cccc(Cl)c1
outcome: inactive
//
Molecule Smiles: C=C(C#N)C(=O)OCC
outcome: inactive
//
Molecule Smiles: CC(C)Cc1ccccc1
outcome: inactive
//
Molecule Smiles: CNC[C@H](O)[C@@H](O)[C@H](O)[C@H](O)CO
outcome: inactive
//
Molecule Smiles: NC(=O)/N=N/C(N)=O
outcome: inactive
//
Molecule Smiles: O=S(=O)(O)c1cc(S(=O)(=O)O)c2c(N=Nc3ccccc3)c(O)ccc2c1
outcome: inactive
//
Molecule Smiles: CC1=CC[C@H]2C[C@@H]1C2(C)C
outcome: inactive
//
Molecule Smiles: NCc1cccc(CN)c1
outcome: inactive
//
Molecule Smiles: Cc1cc(O)cc(C)c1Cl
outcome: inactive
//
Molecule Smiles: CCCCCC/C=C/CCCCCCCC(=O)O
outcome: inactive
//
Molecule Smiles: C[C@@H]1O[C@@H](OC[C@H]2O[C@@H](Oc3c(-c4ccc(O)c(O)c4)oc4cc(O)cc(O)c4c3=O)[C@H](O)[C@@H](O)[C@@H]2O)[C@H](O)[C@H](O)[C@H]1O
outcome: inactive
//
Molecule Smiles: O=C1CCCCC1
outcome: inactive
//
Molecule Smiles: O=c1c(-c2ccc(O)cc2)coc2cc(O)ccc12
outcome: inactive
//
Molecule Smiles: O=[N+]([O-])C(CO)(CO)CO
outcome: inactive
